- ASSAYED TARGET: T1, human EphA2 (ephrin receptor A2), on cells (human, UniProt P29317 24-976)
- T1 construct: Used for HEK293 transfectants, A549 and other human tumor cell lines
- T1 sequence (P29317 24-976 limits assumed): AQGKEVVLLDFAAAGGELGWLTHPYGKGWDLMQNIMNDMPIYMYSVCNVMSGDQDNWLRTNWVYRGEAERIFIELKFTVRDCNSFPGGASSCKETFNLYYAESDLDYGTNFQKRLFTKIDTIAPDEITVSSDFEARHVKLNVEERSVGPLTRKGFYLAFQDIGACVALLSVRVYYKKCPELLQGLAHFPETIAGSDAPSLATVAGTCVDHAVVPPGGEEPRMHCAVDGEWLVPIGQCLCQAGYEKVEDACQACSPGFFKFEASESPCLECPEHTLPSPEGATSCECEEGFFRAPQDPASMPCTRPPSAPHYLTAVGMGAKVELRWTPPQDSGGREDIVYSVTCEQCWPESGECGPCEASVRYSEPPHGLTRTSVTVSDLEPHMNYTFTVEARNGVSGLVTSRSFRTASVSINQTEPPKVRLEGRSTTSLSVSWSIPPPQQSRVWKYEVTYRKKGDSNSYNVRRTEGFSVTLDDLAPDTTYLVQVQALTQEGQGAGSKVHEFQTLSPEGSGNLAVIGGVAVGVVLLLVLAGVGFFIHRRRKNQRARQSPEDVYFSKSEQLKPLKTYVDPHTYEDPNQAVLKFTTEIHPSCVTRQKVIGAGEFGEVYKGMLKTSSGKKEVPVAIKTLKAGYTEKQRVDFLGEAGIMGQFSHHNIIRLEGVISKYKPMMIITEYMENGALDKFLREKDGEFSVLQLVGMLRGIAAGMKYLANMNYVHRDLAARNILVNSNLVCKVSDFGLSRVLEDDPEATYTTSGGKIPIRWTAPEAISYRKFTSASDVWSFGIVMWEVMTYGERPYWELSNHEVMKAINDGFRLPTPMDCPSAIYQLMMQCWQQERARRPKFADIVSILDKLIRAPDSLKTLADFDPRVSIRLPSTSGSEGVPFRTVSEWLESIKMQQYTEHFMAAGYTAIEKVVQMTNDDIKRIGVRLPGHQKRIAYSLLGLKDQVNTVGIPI
- TEST SUMMARY: flow cytometry binding on A549 cells
OUTCOME MEASURE: Flow Delta activity (MedFI)

binder="AB-009808 (antibody, mouse IgG2a, V domains shown) VH: QVQLQQWGAGLLKPSETLSLTCAVYGGSFSDYYWSWIRQPPGKGLEWIGEINHSGSTNYNPSLKSRVTISVDPSKNQFSLKLTSVTAADTAVYYCAKPFRPHCTNGVCYSGDAFDIWGQGTMVTVSS VL: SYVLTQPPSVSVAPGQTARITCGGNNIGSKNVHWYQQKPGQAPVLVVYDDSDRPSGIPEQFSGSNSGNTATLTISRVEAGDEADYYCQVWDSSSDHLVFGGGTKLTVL" measured_result="29500 MedFI"
